# tested_on: Histone deacetylase 1 (Homo sapiens)
# Sequence (Q13547 whole entry): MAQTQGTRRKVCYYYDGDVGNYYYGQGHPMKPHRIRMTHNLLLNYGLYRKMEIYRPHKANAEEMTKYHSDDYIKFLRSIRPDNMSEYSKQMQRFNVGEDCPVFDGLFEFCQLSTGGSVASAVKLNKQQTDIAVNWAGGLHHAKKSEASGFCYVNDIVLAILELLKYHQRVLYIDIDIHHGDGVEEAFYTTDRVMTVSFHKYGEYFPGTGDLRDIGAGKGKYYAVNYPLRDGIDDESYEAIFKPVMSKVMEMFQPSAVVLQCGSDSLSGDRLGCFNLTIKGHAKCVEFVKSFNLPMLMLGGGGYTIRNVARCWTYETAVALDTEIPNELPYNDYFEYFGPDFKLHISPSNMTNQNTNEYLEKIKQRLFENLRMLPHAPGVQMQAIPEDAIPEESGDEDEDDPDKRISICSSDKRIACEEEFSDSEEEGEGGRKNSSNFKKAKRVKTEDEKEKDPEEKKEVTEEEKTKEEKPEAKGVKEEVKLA
# experiment_description: Inhibition of recombinant human HDAC1 using HDAC substrate incubated for 30 mins by fluorescence based assay
assay_metric: pIC50
Bear in mind: pIC50 is minus log10 of a mol/L concentration; give just that figure.

## Task Please report the recorded pIC50 for Nc1ccccc1NC(=O)c1ccc(NC(=O)c2n[nH]cc2NC(=O)c2c(Cl)cccc2Cl)cc1 .
## Result 7.45

----------
# tested_on: Histone deacetylase 9 (Homo sapiens)
# Sequence (Q9UKV0 whole entry): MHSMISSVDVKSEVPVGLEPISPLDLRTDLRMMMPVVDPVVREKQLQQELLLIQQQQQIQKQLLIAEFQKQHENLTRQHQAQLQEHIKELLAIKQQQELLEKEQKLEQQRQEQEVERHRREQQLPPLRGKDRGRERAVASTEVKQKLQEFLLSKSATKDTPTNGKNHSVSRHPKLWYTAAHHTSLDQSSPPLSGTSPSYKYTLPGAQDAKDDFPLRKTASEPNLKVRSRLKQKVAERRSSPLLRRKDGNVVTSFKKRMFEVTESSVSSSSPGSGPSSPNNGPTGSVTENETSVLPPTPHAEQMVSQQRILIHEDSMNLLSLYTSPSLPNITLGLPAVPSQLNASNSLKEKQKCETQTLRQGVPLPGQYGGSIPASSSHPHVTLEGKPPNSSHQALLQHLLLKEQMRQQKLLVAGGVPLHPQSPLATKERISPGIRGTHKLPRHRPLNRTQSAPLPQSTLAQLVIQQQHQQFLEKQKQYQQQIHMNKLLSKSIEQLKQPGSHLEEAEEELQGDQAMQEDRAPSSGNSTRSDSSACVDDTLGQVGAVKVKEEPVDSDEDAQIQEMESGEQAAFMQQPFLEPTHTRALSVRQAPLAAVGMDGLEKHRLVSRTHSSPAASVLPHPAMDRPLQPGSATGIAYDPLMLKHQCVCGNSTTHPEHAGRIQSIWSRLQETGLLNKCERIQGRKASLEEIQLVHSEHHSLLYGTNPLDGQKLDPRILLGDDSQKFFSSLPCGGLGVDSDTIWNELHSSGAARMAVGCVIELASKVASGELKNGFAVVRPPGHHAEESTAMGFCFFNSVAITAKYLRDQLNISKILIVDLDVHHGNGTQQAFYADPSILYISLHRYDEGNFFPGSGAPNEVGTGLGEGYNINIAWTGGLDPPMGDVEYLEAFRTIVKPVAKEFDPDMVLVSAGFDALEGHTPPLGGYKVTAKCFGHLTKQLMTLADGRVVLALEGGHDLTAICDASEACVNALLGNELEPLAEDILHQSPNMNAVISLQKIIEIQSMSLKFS
# experiment_description: Inhibition of recombinant human HDAC9 using HDAC substrate incubated for 30 mins by fluorescence based assay
assay_metric: IC50

## Task Form field: IC50 recorded for Nc1ccccc1NC(=O)c1ccc(NC(=O)c2n[nH]cc2NC(=O)c2c(Cl)cccc2Cl)cc1 with Histone deacetylase 9 (Homo sapiens) (enter value)
## Result > 1000 nM

----------
# experiment_description: Cmax in Sprague-Dawley rat at 5 mg/kg, iv measured upto 6 hrs by LC/MS-MS analysis
# Assay type: ADME, organism-based
# Design: time < 6 hrs, dose 5 mg/kg, route iv
# measurement_context: in vivo
assay_metric: Cmax (ng/mL)
The reply should contain only the number, in ng/mL.

## Task Recorded Cmax of Nc1ccccc1NC(=O)c1ccc(NC(=O)c2n[nH]cc2NC(=O)c2c(Cl)cccc2Cl)cc1 , please.
## Result 3640

----------
# tested_on: Histone deacetylase 4 (Homo sapiens)
# Sequence (P56524 whole entry): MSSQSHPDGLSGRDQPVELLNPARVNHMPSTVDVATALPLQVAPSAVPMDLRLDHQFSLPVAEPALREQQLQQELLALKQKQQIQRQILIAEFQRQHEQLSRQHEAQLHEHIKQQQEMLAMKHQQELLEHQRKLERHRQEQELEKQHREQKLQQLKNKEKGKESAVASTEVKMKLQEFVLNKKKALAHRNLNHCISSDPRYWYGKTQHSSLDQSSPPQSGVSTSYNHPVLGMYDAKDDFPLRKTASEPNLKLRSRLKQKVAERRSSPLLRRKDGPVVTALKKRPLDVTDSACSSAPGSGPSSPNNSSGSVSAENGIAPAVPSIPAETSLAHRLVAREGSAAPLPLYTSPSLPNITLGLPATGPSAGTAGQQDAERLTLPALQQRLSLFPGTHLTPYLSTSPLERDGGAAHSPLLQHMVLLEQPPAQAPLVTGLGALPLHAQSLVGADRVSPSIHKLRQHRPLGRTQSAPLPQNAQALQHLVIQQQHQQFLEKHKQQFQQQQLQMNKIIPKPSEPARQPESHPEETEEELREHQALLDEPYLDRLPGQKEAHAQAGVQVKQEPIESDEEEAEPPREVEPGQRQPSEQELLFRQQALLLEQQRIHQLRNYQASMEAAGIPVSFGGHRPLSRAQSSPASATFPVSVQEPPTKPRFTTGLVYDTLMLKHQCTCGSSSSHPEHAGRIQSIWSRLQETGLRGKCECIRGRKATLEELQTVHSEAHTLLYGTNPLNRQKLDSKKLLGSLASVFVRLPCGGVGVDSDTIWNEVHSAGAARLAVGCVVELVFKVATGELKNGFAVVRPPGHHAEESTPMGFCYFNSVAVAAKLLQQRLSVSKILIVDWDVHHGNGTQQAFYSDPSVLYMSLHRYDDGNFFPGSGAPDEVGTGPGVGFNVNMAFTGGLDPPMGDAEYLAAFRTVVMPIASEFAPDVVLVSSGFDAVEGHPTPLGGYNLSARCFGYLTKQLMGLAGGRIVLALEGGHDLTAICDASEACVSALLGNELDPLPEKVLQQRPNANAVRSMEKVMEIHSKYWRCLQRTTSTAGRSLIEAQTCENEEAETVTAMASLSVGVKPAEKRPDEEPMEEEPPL
# experiment_description: Inhibition of recombinant human HDAC4 using HDAC substrate incubated for 30 mins by fluorescence based assay
pIC50: −log10 of the molar value.
assay_metric: pIC50

## Task // pIC50 lookup, key: Nc1ccccc1NC(=O)c1ccc(NC(=O)c2n[nH]cc2NC(=O)c2c(Cl)cccc2Cl)cc1
## Result < 6.00

----------
# tested_on: Protein deacetylase HDAC6 (Homo sapiens)
# Sequence (Q9UBN7 whole entry): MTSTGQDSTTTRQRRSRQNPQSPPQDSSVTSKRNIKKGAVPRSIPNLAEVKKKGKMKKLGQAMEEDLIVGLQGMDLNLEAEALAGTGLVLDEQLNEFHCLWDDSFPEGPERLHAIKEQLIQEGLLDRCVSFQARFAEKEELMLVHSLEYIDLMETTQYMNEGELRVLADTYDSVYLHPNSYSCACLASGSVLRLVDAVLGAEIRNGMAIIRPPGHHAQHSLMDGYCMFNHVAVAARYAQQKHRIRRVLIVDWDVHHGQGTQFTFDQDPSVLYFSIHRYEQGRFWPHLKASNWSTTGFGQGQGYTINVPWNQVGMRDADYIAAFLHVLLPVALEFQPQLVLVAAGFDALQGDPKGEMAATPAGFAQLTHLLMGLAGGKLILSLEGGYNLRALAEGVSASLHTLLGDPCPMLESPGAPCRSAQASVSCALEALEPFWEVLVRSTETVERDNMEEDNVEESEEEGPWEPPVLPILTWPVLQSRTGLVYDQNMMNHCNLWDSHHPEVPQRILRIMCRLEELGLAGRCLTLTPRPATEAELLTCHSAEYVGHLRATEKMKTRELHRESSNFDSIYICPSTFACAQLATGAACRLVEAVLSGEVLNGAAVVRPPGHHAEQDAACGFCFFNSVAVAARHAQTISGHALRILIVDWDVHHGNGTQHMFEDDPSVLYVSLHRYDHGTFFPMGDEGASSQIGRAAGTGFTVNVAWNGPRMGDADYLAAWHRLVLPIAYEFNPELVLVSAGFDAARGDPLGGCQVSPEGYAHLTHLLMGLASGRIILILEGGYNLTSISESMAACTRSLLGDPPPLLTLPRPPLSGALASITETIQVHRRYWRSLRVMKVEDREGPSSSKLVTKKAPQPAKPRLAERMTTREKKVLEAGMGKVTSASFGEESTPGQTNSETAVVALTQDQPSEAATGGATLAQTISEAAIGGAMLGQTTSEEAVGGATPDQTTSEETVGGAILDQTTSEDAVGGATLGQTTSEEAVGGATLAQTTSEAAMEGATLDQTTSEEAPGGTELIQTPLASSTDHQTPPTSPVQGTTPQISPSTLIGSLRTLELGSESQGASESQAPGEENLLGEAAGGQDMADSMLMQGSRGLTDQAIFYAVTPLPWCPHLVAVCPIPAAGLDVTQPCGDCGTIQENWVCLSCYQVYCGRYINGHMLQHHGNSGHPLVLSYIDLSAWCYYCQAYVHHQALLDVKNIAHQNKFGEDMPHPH
# experiment_description: Inhibition of recombinant human HDAC6 using HDAC substrate incubated for 30 mins by fluorescence based assay
assay_metric: pIC50
Here pIC50 is given on a logarithmic scale as minus log10 of the concentration in mol/L.

## Task What value of pIC50 has been recorded for this entry: Nc1ccccc1NC(=O)c1ccc(NC(=O)c2n[nH]cc2NC(=O)c2c(Cl)cccc2Cl)cc1
## Result 6.14

----------
# tested_on: Histone deacetylase 2 (Homo sapiens)
# Sequence (Q92769 whole entry): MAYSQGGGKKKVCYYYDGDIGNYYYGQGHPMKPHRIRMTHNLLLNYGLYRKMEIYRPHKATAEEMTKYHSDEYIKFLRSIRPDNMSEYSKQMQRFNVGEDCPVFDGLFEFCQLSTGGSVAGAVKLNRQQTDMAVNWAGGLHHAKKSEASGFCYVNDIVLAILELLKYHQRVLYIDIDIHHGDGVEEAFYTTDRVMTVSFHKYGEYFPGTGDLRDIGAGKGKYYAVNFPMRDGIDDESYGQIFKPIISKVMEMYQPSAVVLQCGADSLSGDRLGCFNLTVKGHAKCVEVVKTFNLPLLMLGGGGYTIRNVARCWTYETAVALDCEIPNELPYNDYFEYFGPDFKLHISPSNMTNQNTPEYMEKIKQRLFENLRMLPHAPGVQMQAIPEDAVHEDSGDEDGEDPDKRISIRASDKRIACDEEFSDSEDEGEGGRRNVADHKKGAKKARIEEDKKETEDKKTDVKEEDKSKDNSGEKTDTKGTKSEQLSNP
# experiment_description: Inhibition of recombinant human HDAC2 using HDAC substrate incubated for 30 mins by fluorescence based assay
assay_metric: IC50 (nM)
Write down the numeric answer in nM and omit the unit.

## Task Which IC50 reading was recorded for the molecule Nc1ccccc1NC(=O)c1ccc(NC(=O)c2n[nH]cc2NC(=O)c2c(Cl)cccc2Cl)cc1 ?
## Result 98.8

----------
# tested_on: Histone deacetylase 5 (Homo sapiens, UniProt Q9UQL6)
# Sequence (Q9UQL6 whole entry): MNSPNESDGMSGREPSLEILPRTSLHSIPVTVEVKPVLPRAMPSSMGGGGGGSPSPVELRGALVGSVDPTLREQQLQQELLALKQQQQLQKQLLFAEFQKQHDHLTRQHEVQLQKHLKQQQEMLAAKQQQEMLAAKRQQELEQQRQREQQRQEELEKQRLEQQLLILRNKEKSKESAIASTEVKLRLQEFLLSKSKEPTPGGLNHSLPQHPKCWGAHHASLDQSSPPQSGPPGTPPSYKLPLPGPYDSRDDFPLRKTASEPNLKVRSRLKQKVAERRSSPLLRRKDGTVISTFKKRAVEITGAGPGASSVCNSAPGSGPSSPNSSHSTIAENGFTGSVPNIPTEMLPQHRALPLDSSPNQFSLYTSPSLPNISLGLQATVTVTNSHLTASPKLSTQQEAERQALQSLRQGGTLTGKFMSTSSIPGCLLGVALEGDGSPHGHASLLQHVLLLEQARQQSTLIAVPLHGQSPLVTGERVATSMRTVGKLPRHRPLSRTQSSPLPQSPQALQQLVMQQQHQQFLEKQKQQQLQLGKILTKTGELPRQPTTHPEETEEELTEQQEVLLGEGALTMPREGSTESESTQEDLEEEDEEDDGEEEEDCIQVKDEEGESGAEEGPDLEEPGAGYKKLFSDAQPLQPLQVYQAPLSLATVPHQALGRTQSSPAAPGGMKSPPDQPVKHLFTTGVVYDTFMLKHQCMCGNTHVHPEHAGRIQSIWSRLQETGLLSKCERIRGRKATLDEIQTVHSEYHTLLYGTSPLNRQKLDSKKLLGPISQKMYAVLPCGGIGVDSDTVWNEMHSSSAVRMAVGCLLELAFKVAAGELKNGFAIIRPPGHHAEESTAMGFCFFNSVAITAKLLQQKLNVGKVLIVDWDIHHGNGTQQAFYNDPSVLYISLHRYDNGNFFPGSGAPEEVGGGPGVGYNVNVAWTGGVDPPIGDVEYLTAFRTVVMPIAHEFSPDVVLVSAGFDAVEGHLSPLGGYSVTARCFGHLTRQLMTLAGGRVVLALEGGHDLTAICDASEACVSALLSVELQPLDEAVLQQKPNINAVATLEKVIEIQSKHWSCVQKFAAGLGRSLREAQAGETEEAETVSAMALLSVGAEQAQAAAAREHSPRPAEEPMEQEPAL
# experiment_description: Inhibition of recombinant human HDAC5 using HDAC substrate incubated for 30 mins by fluorescence based assay
assay_metric: IC50

## Task Report IC50 for Nc1ccccc1NC(=O)c1ccc(NC(=O)c2n[nH]cc2NC(=O)c2c(Cl)cccc2Cl)cc1 please.
## Result > 1000 nM

----------
# experiment_description: Clearance in Sprague-Dawley rat at 5 mg/kg, iv measured upto 6 hrs by LC/MS-MS analysis
# Format: ADME, organism-based
# measurement_context: in vivo
assay_metric: clearance (mL/min/kg)
The figure you give is taken to be in mL/min/kg; do not add the unit.

## Task Using the record for Nc1ccccc1NC(=O)c1ccc(NC(=O)c2n[nH]cc2NC(=O)c2c(Cl)cccc2Cl)cc1 , report its clearance.
## Result 88.5

----------
# experiment_description: Bioavailability in Sprague-Dawley rat at 25 mg/kg, po measured upto 8 hrs by LC/MS-MS analysis
# Format: ADME, organism-based
# measurement_context: in vivo
assay_metric: bioavailability (%)
Only the number, expressed in %, is required.

## Task What does the data say about its bioavailability? Entry: Nc1ccccc1NC(=O)c1ccc(NC(=O)c2n[nH]cc2NC(=O)c2c(Cl)cccc2Cl)cc1
## Result 56.7
